biological target: Androgen Receptor (Homo sapiens, UniProt P10275); construct: endogenous in cells; host or cells: VCaP cells; assay: Androgen Receptor ELISA assay (PathScan AR ELISA) in VCaP cells: AR degradation, Dmax and DC50; type: cell-based; conditions: VCaP cells; Table 36; read-out: VCaP DC50
Sequence (P10275 whole entry): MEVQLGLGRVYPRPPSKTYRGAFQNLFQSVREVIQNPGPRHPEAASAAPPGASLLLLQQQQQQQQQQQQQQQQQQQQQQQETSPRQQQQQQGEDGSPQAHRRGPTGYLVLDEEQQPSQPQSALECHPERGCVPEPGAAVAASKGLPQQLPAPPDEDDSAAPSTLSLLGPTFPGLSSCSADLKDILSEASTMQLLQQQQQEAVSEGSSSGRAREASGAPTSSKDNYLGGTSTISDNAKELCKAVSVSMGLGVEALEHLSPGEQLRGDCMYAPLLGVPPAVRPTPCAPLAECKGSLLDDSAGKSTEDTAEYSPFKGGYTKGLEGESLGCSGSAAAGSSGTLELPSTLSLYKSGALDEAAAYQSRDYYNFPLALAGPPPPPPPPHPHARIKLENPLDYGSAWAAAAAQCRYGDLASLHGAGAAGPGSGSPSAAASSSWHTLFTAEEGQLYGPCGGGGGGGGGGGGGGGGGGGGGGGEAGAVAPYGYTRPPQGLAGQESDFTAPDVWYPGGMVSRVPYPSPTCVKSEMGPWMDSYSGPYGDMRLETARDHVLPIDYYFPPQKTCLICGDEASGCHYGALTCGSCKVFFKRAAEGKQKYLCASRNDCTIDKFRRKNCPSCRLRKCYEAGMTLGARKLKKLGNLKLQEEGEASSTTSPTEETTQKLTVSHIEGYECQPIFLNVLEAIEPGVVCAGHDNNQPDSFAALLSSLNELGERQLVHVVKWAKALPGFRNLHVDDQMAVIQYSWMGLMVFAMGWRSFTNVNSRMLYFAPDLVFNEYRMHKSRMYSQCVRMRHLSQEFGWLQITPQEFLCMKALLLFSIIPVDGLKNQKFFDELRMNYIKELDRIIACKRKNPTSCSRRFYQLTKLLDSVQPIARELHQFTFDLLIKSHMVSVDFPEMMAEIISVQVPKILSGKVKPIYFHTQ
observation.type: DC50

Problem: # return recorded DC50 for input Cc1ncsc1-c1ccc([C@H](C)NC(=O)C2C[C@@H](O)CN2C(=O)C(NC(=O)CN2CCC(CCN3CCN(c4ccc(C(=O)NC5C(C)(C)C(Oc6ccc(C#N)c(Cl)c6)C5(C)C)cn4)CC3)CC2)C(C)(C)C)cc1 (stereo partly shown)
Solution: < 50 nM

Problem: # return recorded DC50 for input Cc1ncsc1-c1ccc([C@H](C)NC(=O)[C@@H]2C[C@@H](O)CN2C(=O)[C@@H](NC(=O)COCCN2CCN(c3cnc(C(=O)N[C@H]4C(C)(C)[C@H](Oc5ccc(C#N)c(C(F)(F)F)c5)C4(C)C)cn3)CC2)C(C)(C)C)cc1
Solution: < 50 nM

Problem: # return recorded DC50 for input Cc1ncsc1-c1ccc([C@H](C)NC(=O)[C@@H]2C[C@@H](O)CN2C(=O)[C@@H](NC(=O)CN[C@H]2C[C@H](N3CCN(c4ccc(C(=O)N[C@H]5C(C)(C)[C@H](Oc6ccc(C#N)c(Cl)c6)C5(C)C)cn4)CC3)C2)C(C)(C)C)cc1
Solution: < 50 nM

Problem: # return recorded DC50 for input Cc1ncsc1-c1ccc([C@H](C)NC(=O)[C@@H]2C[C@@H](O)CN2C(=O)[C@@H](NC(=O)COCCN2CCN(c3ccc(C(=O)N[C@H]4CC(Oc5ccc(C#N)c(Cl)c5)C4(C)C)cn3)CC2)C(C)(C)C)cc1 (stereo partly shown)
Solution: < 50 nM

Problem: # return recorded DC50 for input CC(C)[C@H](C(=O)N1C[C@H](O)C[C@H]1C(=O)NCc1ccc(C#N)cc1)N1Cc2ccc(N3CCN(CCCc4ccc(C(=O)N[C@H]5C(C)(C)[C@H](Oc6ccc(C#N)c(C(F)(F)F)c6)C5(C)C)cc4)CC3)cc2C1=O
Solution: > 501 nM

Problem: # return recorded DC50 for input Cc1ncsc1-c1ccc([C@H](C)NC(=O)[C@@H]2C[C@@H](O)CN2C(=O)[C@@H](NC(=O)COCCCCOc2ccc(C(=O)N[C@H]3C(C)(C)[C@H](Oc4ccc(C#N)c(C(F)(F)F)c4)C3(C)C)cc2)C(C)(C)C)cc1
Solution: < 50 nM

Problem: # return recorded DC50 for input Cc1cc(O[C@H]2C(C)(C)[C@H](NC(=O)c3ccc(N4CCN(CCOCC(=O)N[C@H](C(=O)N5C[C@H](O)C[C@H]5C(=O)N[C@@H](C)c5ccc(-c6scnc6C)cc5)C(C)(C)C)CC4)nc3)C2(C)C)ccc1C#N
Solution: < 50 nM

Problem: # return recorded DC50 for input Cc1ncsc1-c1ccc([C@H](C)NC(=O)[C@@H]2CCCN2C(=O)[C@@H](NC(=O)CN2CCN(CCCc3ccc(C(=O)N[C@H]4C(C)(C)[C@H](Oc5ccc(C#N)c(C(F)(F)F)c5)C4(C)C)cc3)CC2)C(C)(C)C)cc1
Solution: > 501 nM

# map each compound to its DC50
1. Cc1ncsc1-c1ccc([C@H](C)NC(=O)[C@@H]2C[C@@H](O)CN2C(=O)[C@@H](NC(=O)CN2CCC(O[C@H]3C[C@H](Nc4ccc(C(=O)N[C@H]5C(C)(C)[C@H](Oc6ccc(C#N)c(Cl)c6)C5(C)C)cn4)C3)CC2)C(C)(C)C)cc1
2. Cc1ncsc1-c1ccc([C@H](C)NC(=O)[C@@H]2C[C@@H](O)CN2C(=O)[C@H](C(C)C)N2Cc3ccc(N4CCN(CCCc5ccc(C(=O)N[C@H]6C(C)(C)[C@H](Oc7ccc(C#N)c(Cl)c7)C6(C)C)cc5)CC4)cc3C2=O)cc1
3. Cc1ncsc1-c1ccc([C@H](C)NC(=O)[C@@H]2CC(F)(F)CN2C(=O)[C@@H](NC(=O)COCCN2CCN(c3ccc(C(=O)N[C@H]4C(C)(C)[C@H](Oc5ccc(C#N)c(Cl)c5)C4(C)C)cn3)CC2)C(C)(C)C)cc1
4. Cc1ncsc1-c1ccc([C@H](C)NC(=O)[C@@H]2C[C@@H](O)CN2C(=O)[C@@H](NC(=O)CN2C3CCC2CN(CCCc2ccc(C(=O)NC4C(C)(C)C(Oc5ccc(C#N)c(Cl)c5)C4(C)C)cc2)C3)C(C)(C)C)cc1 (stereo partly shown)
5. Cc1ncsc1-c1ccc([C@H](C)NC(=O)[C@@H]2C[C@@H](O)CN2C(=O)[C@@H](NC(=O)CN2CCN(CCCc3ccc(C(=O)N[C@H]4C(C)(C)[C@H](Oc5ccc(C#N)c(Cl)c5)C4(C)C)cc3)CC2)C2COC2)cc1
6. Cc1ncsc1-c1ccc([C@H](C)NC(=O)C2C[C@@H](O)CN2C(=O)[C@@H](NC(=O)COCCC2(CCNc3ccc(C(=O)N[C@H]4C(C)(C)[C@H](Oc5ccc(C#N)c(Cl)c5)C4(C)C)cc3)COC2)C(C)(C)C)cc1 (stereo partly shown)

Solution:
1. < 50 nM
2. > 501 nM
3. > 501 nM
4. < 50 nM
5. > 501 nM
6. < 50 nM

# map each compound to its DC50
1. CC(C)C[C@H](OCCN1CCN(c2ccc(C(=O)N[C@H]3C(C)(C)[C@H](Oc4ccc(C#N)c(Cl)c4)C3(C)C)cn2)CC1)C(=O)N[C@H](C(=O)N1C[C@H](O)C[C@H]1C(=O)NCc1ccc(Cl)cc1)C(C)C
2. Cc1ncsc1-c1ccc(C(CO)NC(=O)[C@@H]2C[C@@H](O)CN2C(=O)[C@@H](NC(=O)CCCN2CCN(c3ccc(C(=O)N[C@H]4C(C)(C)[C@H](Oc5ccc(C#N)c(Cl)c5)C4(C)C)cn3)CC2)C(C)(C)C)cc1 (stereo partly shown)

Solution:
1: > 501 nM; 2: > 501 nM
